- TARGET: human TLR8 (Homo sapiens (Human))
- Sequence (Q9NR97 27-1041): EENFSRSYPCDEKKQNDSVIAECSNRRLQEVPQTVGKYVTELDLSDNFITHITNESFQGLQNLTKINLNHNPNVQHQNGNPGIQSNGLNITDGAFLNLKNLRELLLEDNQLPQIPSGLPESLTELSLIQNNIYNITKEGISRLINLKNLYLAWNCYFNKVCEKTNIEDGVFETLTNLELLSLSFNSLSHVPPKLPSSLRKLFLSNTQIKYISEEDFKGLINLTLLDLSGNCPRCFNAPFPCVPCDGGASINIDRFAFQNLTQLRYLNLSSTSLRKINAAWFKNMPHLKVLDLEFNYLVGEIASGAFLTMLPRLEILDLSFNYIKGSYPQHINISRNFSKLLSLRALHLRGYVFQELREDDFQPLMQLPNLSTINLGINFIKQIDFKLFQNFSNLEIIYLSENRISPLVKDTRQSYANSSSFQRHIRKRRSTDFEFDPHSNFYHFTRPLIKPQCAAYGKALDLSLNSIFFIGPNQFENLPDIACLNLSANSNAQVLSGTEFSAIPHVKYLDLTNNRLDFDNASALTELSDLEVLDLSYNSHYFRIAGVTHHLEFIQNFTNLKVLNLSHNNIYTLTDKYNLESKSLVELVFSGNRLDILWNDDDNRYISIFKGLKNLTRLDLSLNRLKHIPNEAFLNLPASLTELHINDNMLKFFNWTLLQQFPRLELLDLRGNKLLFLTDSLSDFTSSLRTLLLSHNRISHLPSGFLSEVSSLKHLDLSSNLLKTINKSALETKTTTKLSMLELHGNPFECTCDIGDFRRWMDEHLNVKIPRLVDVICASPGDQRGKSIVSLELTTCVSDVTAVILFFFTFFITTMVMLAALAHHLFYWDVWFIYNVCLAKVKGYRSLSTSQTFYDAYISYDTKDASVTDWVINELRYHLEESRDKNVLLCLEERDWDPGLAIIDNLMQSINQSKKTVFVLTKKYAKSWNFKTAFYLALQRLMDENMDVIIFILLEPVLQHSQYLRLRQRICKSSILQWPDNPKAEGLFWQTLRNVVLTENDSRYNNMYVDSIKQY
- PROTOCOL_DESCRIPTION: Agonistic activity on human TLR8 in HEK-Blue hTLR8 stably transfected cells
- Type: cell-based

[
  {
    "COMPOUND": "CCCCOc1nc(N)c2cnn(Cc3ccc(CN4CCCCC4)cc3)c2n1 [Example 3]",
    "Emax / %": 2
  },
  {
    "COMPOUND": "CCCCOc1nc(N)c2cnn(Cc3cccc(CN4CCCC4)c3)c2n1 [Example 4]",
    "Emax / %": 28
  },
  {
    "COMPOUND": "CCCCNc1nc(N)c2cnn(Cc3ccc(CN4CCCC4)cc3)c2n1 [Example 10]",
    "Emax / %": 0
  },
  {
    "COMPOUND": "COCCOc1nc(N)c2cnn(Cc3ccc(CN4CCCC4)cc3)c2n1 [Example 7]",
    "Emax / %": 0
  },
  {
    "COMPOUND": "COCC(C)Oc1nc(N)c2cnn(Cc3ccc(CN4CCCC4)cc3)c2n1 (centres unmarked) [Example 8]",
    "Emax / %": 2
  }
]

---

- TARGET: UniProtKB P08684
- Sequence (P08684 whole entry): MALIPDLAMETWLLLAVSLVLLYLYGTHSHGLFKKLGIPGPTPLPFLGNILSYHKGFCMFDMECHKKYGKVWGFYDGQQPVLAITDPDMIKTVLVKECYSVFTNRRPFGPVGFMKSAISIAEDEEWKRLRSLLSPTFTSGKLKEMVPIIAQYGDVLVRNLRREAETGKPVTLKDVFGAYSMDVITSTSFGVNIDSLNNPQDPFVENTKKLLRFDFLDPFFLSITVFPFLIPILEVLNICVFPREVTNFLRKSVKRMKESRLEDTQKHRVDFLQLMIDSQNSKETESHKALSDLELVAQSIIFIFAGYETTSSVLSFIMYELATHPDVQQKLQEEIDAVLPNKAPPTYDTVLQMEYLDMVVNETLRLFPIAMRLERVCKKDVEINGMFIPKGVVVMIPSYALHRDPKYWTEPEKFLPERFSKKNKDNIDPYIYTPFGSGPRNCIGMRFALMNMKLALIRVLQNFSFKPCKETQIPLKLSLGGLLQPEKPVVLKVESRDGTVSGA
- PROTOCOL_DESCRIPTION: Inhibition of the testosterone metabolite site of CYP3A4 in human liver microsomes
- Format: in vitro ADME
- CONDITION_PARAMETERS: probe substrate testosterone
ENDPOINT_NAME: IC50 (µM)

[
  {
    "COMPOUND": "CCCCOc1nc(N)c2cnn(Cc3ccc(CN4CCCCC4)cc3)c2n1 [Example 3]",
    "TARGET": "UniProtKB P08684",
    "ENDPOINT_NAME": "IC50",
    "CMP": "=",
    "MEASURED": 3
  },
  {
    "COMPOUND": "CCCCOc1nc(N)c2cnn(Cc3cccc(CN4CCCC4)c3)c2n1 [Example 4]",
    "TARGET": "UniProtKB P08684",
    "ENDPOINT_NAME": "IC50",
    "CMP": "=",
    "MEASURED": 6
  },
  {
    "COMPOUND": "CCCCOc1nc(N)c2cnn(Cc3ccc(CN4CCC4)cc3)c2n1 [Example 2]",
    "TARGET": "UniProtKB P08684",
    "ENDPOINT_NAME": "IC50",
    "CMP": "=",
    "MEASURED": 19
  },
  {
    "COMPOUND": "CCCCOc1nc(N)c2cnn(Cc3cccc(CN4CCCCC4)c3)c2n1 [Example 6]",
    "TARGET": "UniProtKB P08684",
    "ENDPOINT_NAME": "IC50",
    "CMP": "=",
    "MEASURED": 3
  },
  {
    "COMPOUND": "COCCOc1nc(N)c2cnn(Cc3ccc(CN4CCCC4)cc3)c2n1 [Example 7]",
    "TARGET": "UniProtKB P08684",
    "ENDPOINT_NAME": "IC50",
    "CMP": ">",
    "MEASURED": 30
  },
  {
    "COMPOUND": "CCCCC(=O)c1nc(N)c2cnn(Cc3ccc(CN4CCCC4)cc3)c2n1 [Example 12]",
    "TARGET": "UniProtKB P08684",
    "ENDPOINT_NAME": "IC50",
    "CMP": ">",
    "MEASURED": 30
  }
]

---

Recorded measurements of Emax, one per entry
- TARGET: human TLR8 (Homo sapiens (Human))
- PROTOCOL_DESCRIPTION: Agonistic activity on human TLR8 in HEK-Blue hTLR8 stably transfected cells
- Type: cell-based

[
  {
    "SMILES_STRUCTURE": "CCCCC(=O)c1nc(N)c2cnn(Cc3ccc(CN4CCCC4)cc3)c2n1",
    "UNIT_ANNOTATION": "%",
    "Emax": 5
  },
  {
    "SMILES_STRUCTURE": "CCCCOc1nc(N)c2cnn(Cc3ccc(CN4CCCC4)cc3)c2n1",
    "UNIT_ANNOTATION": "%",
    "Emax": 8
  },
  {
    "SMILES_STRUCTURE": "CCCCOc1nc(N)c2cnn(Cc3cccc(CN4CCCCC4)c3)c2n1",
    "UNIT_ANNOTATION": "%",
    "Emax": 35
  },
  {
    "SMILES_STRUCTURE": "CCCCOc1nc(N)c2cnn(Cc3ccc(CN4CCC4)cc3)c2n1",
    "UNIT_ANNOTATION": "%",
    "Emax": 52
  },
  {
    "SMILES_STRUCTURE": "CCCNC(=O)c1nc(N)c2cnn(Cc3ccc(CN4CCCC4)cc3)c2n1",
    "UNIT_ANNOTATION": "%",
    "Emax": 0
  }
]

---

- TARGET: UniProt:P10635
- Sequence (P10635 whole entry): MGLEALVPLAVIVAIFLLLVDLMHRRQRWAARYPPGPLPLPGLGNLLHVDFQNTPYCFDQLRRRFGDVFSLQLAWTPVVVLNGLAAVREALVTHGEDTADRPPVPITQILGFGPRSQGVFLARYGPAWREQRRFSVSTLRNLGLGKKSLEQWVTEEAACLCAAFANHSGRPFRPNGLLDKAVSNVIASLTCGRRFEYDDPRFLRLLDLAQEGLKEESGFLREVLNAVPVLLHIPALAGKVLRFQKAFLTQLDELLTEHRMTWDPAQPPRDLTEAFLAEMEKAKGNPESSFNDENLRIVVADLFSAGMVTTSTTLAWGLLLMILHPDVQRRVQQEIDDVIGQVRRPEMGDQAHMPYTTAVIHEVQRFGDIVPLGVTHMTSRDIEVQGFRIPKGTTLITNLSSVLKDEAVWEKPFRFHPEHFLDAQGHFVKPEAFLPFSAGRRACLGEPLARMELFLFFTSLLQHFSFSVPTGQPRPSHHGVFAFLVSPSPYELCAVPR
- PROTOCOL_DESCRIPTION: Inhibition of the enzyme activity of CYP2D6 in human liver microsomes
- Assay type: in vitro ADME
- CONDITION_PARAMETERS: probe substrate dextromethorphan
Recorded measurements of IC50, one per entry

[
  {
    "SMILES_STRUCTURE": "CCCCOc1nc(N)c2cnn(Cc3cccc(CN4CCCC4)c3)c2n1",
    "TARGET": "UniProt:P10635",
    "UNIT_ANNOTATION": "µM",
    "CMP": "=",
    "IC50": 16
  },
  {
    "SMILES_STRUCTURE": "CCCCOc1nc(N)c2cnn(Cc3ccc(CN4CCCCC4)cc3)c2n1",
    "TARGET": "UniProt:P10635",
    "UNIT_ANNOTATION": "µM",
    "CMP": "=",
    "IC50": 4
  },
  {
    "SMILES_STRUCTURE": "CCCCC(=O)c1nc(N)c2cnn(Cc3ccc(CN4CCCC4)cc3)c2n1",
    "TARGET": "UniProt:P10635",
    "UNIT_ANNOTATION": "µM",
    "CMP": "=",
    "IC50": 16
  },
  {
    "SMILES_STRUCTURE": "CCCCOc1nc(N)c2cnn(Cc3ccc(CN4CCC4)cc3)c2n1",
    "TARGET": "UniProt:P10635",
    "UNIT_ANNOTATION": "µM",
    "CMP": ">",
    "IC50": 30
  },
  {
    "SMILES_STRUCTURE": "CCCCOc1nc(N)c2cnn(Cc3ccc(CN4CCCC4)cc3)c2n1",
    "TARGET": "UniProt:P10635",
    "UNIT_ANNOTATION": "µM",
    "CMP": ">",
    "IC50": 30
  },
  {
    "SMILES_STRUCTURE": "CCCCOc1nc(N)c2cnn(Cc3cccc(CN4CCCCC4)c3)c2n1",
    "TARGET": "UniProt:P10635",
    "UNIT_ANNOTATION": "µM",
    "CMP": "=",
    "IC50": 10
  },
  {
    "SMILES_STRUCTURE": "COCCOc1nc(N)c2cnn(Cc3ccc(CN4CCCC4)cc3)c2n1",
    "TARGET": "UniProt:P10635",
    "UNIT_ANNOTATION": "µM",
    "CMP": ">",
    "IC50": 30
  }
]

---

- TARGET: human TLR7 (Homo sapiens (Human), UniProt Q9NYK1)
- Sequence (Q9NYK1 27-1049): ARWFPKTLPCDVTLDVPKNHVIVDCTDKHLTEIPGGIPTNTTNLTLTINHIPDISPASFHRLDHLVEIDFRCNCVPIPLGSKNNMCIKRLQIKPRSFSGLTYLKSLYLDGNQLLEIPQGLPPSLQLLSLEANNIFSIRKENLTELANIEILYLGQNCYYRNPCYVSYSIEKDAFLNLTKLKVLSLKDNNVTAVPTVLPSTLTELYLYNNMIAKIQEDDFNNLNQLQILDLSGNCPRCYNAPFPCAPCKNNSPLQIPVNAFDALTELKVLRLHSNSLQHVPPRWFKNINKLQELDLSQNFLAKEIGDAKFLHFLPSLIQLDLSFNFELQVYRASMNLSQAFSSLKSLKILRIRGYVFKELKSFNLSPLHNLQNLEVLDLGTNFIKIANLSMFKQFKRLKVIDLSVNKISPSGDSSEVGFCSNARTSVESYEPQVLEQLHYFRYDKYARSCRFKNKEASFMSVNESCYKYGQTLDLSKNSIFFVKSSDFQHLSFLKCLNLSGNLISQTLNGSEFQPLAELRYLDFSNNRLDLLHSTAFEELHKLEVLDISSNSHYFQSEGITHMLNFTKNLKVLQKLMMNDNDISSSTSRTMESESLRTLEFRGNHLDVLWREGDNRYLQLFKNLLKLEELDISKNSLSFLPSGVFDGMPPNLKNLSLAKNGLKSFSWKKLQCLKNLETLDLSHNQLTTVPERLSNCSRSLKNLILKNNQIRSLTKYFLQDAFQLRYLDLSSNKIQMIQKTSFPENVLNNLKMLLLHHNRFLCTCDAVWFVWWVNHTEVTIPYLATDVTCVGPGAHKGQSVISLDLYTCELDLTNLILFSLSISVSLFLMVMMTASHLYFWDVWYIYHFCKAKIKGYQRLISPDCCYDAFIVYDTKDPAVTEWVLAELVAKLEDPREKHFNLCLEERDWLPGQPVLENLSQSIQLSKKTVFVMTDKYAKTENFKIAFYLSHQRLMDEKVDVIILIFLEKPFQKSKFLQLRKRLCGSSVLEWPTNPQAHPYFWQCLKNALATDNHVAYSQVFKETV
- PROTOCOL_DESCRIPTION: Agonistic activity on human TLR7 in HEK-Blue hTLR7 stably transfected cells
- Format: cell-based
Recorded measurements of Emax, one per entry

[
  {
    "COMPOUND": "CCCCC(=O)c1nc(N)c2cnn(Cc3ccc(CN4CCCC4)cc3)c2n1 [Example 12]",
    "UNIT_ANNOTATION": "%",
    "Emax": 78
  },
  {
    "COMPOUND": "CCCCNc1nc(N)c2cnn(Cc3ccc(CN4CCCC4)cc3)c2n1 [Example 10]",
    "UNIT_ANNOTATION": "%",
    "Emax": 79
  },
  {
    "COMPOUND": "CCCCOc1nc(N)c2cnn(Cc3ccc(CN4CCCCC4)cc3)c2n1 [Example 3]",
    "UNIT_ANNOTATION": "%",
    "Emax": 91
  },
  {
    "COMPOUND": "CCCCOc1nc(N)c2cnn(Cc3cccc(CN4CCCCC4)c3)c2n1 [Example 6]",
    "UNIT_ANNOTATION": "%",
    "Emax": 91
  },
  {
    "COMPOUND": "CCCCOc1nc(N)c2cnn(Cc3ccc(CN4CCCC4)cc3)c2n1 [Example 1]",
    "UNIT_ANNOTATION": "%",
    "Emax": 100
  },
  {
    "COMPOUND": "CCCNC(=O)c1nc(N)c2cnn(Cc3ccc(CN4CCCC4)cc3)c2n1 [Example 11]",
    "UNIT_ANNOTATION": "%",
    "Emax": 85
  }
]
